Reference for the values: the supplement of paper PMC8728848

# Target Or System: Gal(a1-3)Gal(b1-3)GlcNAc
# Assay Method Text: glycan array binding signal (z-score within array); higher = stronger binding
# Condition Notes: glycan notation: IUPAC condensed, linker removed
This is one part of a sample in which the strongest signals are shown more often than they occur.
Reported Property: glycan array binding signal (z-score)
The response must contain the number and no unit.

Binder	glycan array binding signal (z-score)
DBA (Dolichos biflorus) (protein) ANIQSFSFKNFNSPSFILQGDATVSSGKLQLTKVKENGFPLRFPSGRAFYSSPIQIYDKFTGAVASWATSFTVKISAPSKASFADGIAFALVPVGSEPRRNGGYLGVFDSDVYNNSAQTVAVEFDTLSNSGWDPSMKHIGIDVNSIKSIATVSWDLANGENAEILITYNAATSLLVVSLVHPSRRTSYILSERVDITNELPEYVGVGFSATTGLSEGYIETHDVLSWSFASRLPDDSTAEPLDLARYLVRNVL	-0.124
Cohesin-hMARCO (Homo sapiens) (protein) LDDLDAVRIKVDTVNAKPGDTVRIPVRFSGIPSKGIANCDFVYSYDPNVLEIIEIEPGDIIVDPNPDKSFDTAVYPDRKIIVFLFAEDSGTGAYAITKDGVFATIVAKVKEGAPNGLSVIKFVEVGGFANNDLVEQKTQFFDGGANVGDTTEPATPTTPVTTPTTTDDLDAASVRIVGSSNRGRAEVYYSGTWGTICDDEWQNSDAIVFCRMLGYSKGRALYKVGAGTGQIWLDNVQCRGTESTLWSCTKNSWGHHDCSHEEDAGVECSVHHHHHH	11.2
Si Bti9 1b-V5-his (Solanum lycopersicum) (protein) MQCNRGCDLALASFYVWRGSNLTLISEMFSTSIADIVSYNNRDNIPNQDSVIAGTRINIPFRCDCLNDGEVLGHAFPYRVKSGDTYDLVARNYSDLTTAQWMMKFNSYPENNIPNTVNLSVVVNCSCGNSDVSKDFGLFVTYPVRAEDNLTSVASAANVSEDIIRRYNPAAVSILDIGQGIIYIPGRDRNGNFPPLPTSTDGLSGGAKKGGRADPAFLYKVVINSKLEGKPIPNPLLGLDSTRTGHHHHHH	11.5

Input: Give the reported value of glycan array binding signal (z-score) for this record: UEA-I (Ulex europaeus), P22972 (protein) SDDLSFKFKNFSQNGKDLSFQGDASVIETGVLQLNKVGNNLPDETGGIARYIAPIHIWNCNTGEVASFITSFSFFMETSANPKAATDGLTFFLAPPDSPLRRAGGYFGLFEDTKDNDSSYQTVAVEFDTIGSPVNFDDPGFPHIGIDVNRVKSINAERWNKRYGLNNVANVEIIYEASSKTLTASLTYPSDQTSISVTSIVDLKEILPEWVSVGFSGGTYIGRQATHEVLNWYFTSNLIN
Output: -0.18

Input: Give the reported value of glycan array binding signal (z-score) for this record: AMA (Arum maculatun) (protein) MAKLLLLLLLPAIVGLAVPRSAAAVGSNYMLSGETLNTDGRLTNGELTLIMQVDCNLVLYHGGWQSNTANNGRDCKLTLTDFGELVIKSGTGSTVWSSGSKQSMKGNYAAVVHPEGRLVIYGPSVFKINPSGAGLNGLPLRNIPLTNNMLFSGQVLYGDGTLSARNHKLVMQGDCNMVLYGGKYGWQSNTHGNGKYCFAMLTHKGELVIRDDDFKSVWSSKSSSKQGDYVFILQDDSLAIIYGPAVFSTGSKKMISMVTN
Output: -0.21

Input: Give the reported value of glycan array binding signal (z-score) for this record: ABA (Agaricus bisporus), Q00022 (protein) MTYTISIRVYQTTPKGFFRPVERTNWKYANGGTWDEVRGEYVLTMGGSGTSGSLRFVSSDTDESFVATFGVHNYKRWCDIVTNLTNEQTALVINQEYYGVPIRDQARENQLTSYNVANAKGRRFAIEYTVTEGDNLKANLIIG
Output: -0.192

Input: Give the reported value of glycan array binding signal (z-score) for this record: CD34 (Homo sapiens), P28906 (protein) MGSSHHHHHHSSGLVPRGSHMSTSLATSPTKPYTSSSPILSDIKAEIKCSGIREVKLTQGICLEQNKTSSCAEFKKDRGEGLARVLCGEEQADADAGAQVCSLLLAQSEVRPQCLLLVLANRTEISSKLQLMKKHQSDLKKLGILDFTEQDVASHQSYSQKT
Output: 0.398

Input: Give the reported value of glycan array binding signal (z-score) for this record: HPA (Helix pomatia), Q2F1K8 (protein) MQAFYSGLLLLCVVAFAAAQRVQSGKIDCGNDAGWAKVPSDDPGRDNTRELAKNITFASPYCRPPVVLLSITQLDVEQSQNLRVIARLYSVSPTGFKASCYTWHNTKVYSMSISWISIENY
Output: -0.213

Input: Give the reported value of glycan array binding signal (z-score) for this record: CC1G-11630 (Coprinopsis cinerea), A8P462 (protein) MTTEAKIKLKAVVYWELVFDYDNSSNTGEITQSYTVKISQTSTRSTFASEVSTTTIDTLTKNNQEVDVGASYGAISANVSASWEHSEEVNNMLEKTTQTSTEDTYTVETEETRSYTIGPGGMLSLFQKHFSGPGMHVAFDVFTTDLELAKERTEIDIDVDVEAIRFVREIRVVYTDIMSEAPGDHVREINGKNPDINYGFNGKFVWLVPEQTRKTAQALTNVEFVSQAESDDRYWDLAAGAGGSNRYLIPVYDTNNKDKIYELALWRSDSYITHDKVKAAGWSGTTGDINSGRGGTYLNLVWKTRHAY
Output: 6.02

Input: Give the reported value of glycan array binding signal (z-score) for this record: Arath Fbox (Arabidopsis thaliana), NP_178341.1 (protein) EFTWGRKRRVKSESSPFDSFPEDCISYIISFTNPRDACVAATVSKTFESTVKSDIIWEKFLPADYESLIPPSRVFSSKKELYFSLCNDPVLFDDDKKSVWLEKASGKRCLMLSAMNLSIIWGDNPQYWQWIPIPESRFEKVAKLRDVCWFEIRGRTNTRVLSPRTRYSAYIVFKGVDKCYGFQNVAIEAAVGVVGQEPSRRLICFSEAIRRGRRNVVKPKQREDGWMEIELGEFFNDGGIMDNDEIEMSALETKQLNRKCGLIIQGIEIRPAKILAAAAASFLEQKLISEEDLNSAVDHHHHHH
Output: 12
